system: modified version of the GPR119 receptor (94% identity to human receptor); test: cAMP production assay (LANCE cAMP kit, TR-FRET) in HEK-293 cells; type: cell-based; conditions: increase in cAMP relative to basal levels; agonist activity if 1.5-fold or greater
Categories are defined by ranges of Fold over baseline, namely interval 1 = under 3, interval 2 = from 3 up to 4, interval 3 = 4 and over

                                   compound  qualitative_label
0  COC(C)(C)c1nsc(N2CCC(N3CC[C@H](Oc4ccc(S(C)(=O)=O)cc4F)C3=O)CC2)n1         interval 3

## Task Dear colleague, I would appreciate it if you could identify the bin for Cc1nnc(-c2ccc(O[C@H]3CCN(C4CCN(c5nc(C(C)C)ns5)CC4)C3=O)c(F)c2)o1 and reply at your convenience.
## Result interval 3

## Task Classify this compound: CS(=O)(=O)c1ccc(N[C@H]2CCN(C3CCN(c4nc([C@H](O)CO)ns4)CC3)C2=O)c(F)c1
## Result interval 1

## Task Which category fits this record: CC(C)c1nsc(N2CCC(N3CCC(Oc4ccc(C(=O)NCCN(C)C)cc4F)C3=O)CC2)n1 (stereo not drawn)
## Result interval 1

## Task Where would CS(=O)(=O)c1ccc(O[C@H]2CCN(C3CCN(c4nc(C5CCOCC5)ns4)CC3)C2=O)c(F)c1 land among the classes by reported Fold over baseline?
## Result interval 3

## Task # bin lookup: classify CC(C)(C)c1nsc(N2CCC(N3CCC[C@H](Nc4ccc(S(C)(=O)=O)cc4F)C3=O)CC2)n1 by its Fold over baseline
## Result interval 1

## Task Bin this entry: CCS(=O)(=O)c1ccc(OC2CCN(C3CCN(c4nc(CC(C)C)ns4)CC3)C2=O)c(F)c1 (stereo not drawn)
## Result interval 2

----------
system: modified version of the GPR119 receptor (94% identity to human receptor); assay: cAMP production assay (LANCE cAMP kit, TR-FRET) in HEK-293 cells; format: cell-based; conditions: HEK-293 cells stably expressing modified GPR119; test compounds 0.2 nM to 10 μM, one-hour incubation
Attribute Measured: cAMP production in HEK-293 cells
Record the result as a number with its unit.

                                   compound                attribute_measured  reported_measurement
0  Cc1cc(O[C@H]2CCN(C3CCN(c4nc(C(C)C)ns4)CC3)C2=O)c(F)cc1C#N [Example 64]  cAMP production in HEK-293 cells             30.8 nmol

For every listed record, write down its cAMP production in HEK-293 cells.
1. CC(C)c1nsc(N2CCC(N3CC[C@H](Nc4ccc(S(C)(=O)=O)cc4F)C3=O)CC2)n1 [Example 1]
2. CC(C)(C)c1nsc(N2CCC(N3CC[C@H](Nc4ccc(S(C)(=O)=O)cc4F)C3=O)CC2)n1 [Example 37]
3. CS(=O)(=O)c1ccc(O[C@H]2CCN(C3CCN(c4nc(-n5cccn5)ns4)CC3)C2=O)c(F)c1 [Example 42]
4. CC(C)c1nsc(N2CCC(N3CCC(Oc4ccc(C(=O)N(C)CCN(C)C)cc4F)C3=O)CC2)n1 (stereo not shown) [Example 78]
5. COC(C)(C)c1nsc(N2CCC(N3CC[C@H](Oc4c(F)cc(S(C)(=O)=O)cc4F)C3=O)CC2)n1 [Example 40]

## Result
1. 21.6 nmol
2. 20.9 nmol
3. 12.0 nmol
4. 5.0 nmol
5. 21.1 nmol

## Task Sample CS(=O)(=O)c1cc(F)c(N[C@H]2CCN(C3CCN(c4nc(C(F)(F)F)ns4)CC3)C2=O)cc1F [Example 89] — what was its cAMP production in HEK-293 cells?
## Result 15.1 nmol
